- test-summary: NCI Yeast Anticancer Drug Screen. Data for the bub3 strain (AID 167)
- condition-context: S. cerevisiae bub3 mutant strain, at 33.0 µM, hits give high values
Compounds without any hit were thinned out: in the full panel of roughly 79,000, 15% have a hit.
endpoint-label: growth inhibition (%)
Please give a number only; it is taken to be in %.

Consider the worked cases shown below.
Input line: Find the recorded growth inhibition belonging to Nc1ccc(F)cc1S and report it.
Output line: 73

Input line: Also, Cc1cccc(C(C)(C)C)c1NC(=O)C(C#N)C1=C(Cl)C(=O)c2ccccc2C1=O (stereo not given) please.
Output line: 98

Input line: Also, CCOc1ccccc1N=Cc1c2ccccc2cc2ccccc12 please.
Output line: 98

Input line: Also, O=C1CC(=O)c2ccccc21 please.
Output line: 3

Input line: Also, O=C(O)c1ccc(N2C(=O)C=CC2=O)cc1 please.
Output line: 4

Input line: Also, CCCCOP(=O)(CCCP(=O)(OCCCC)OCCCC)OCCCC please.
Output line: 1

Input line: Also, CNC(=O)OCc1c(COC(=O)NC)c2n(c1C)-c1ccc(OC)cc1CCC2 please.
Output line: 97

Input line: Also, CC(=O)ON=C1C=CC(=C(C#N)c2ccc(Cl)cc2)C=C1 please.
Output line: 7

New cases:
Input line: Find the recorded growth inhibition belonging to Cc1nc2ccc(N=NN(C)C)cc2[nH]1 and report it.
Output line: 97

Input line: Also, Nc1ncnc2c1ncn2C1OC(CO)CC1O (stereo not given) please.
Output line: 77

Input line: Also, CN(C)c1ccc2c(SCC(=O)OCC(=O)[C@@]3(O)CC[C@H]4[C@@H]5CCC6=CC(=O)C=C[C@]6(C)[C@H]5C(=O)C[C@@]43C)c3ccc(N(C)C)cc3nc2c1 please.
Output line: 87

Input line: Also, Nc1ccn(C2OC(COP(=O)(O)O)C(O)C2O)c(=O)n1 (stereo not given) please.
Output line: -12

Input line: Also, O=C1C(=O)c2ccccc2C(O)=C1C(C1=C(O)c2ccccc2C(=O)C1=O)c1ccc(Cl)cc1 please.
Output line: 66

Input line: Also, CCC(C)OC(=O)Nc1ccc(C)c(NC(=O)OC(C)CC)c1 (stereo not given) please.
Output line: 4

Input line: Also, OCC(CO)C(c1cccc2ccccc12)c1cccc2ccccc12 please.
Output line: 99

Input line: Also, CCOC(=O)c1cc([N+](=O)[O-])c(Sc2ncnc3nc[nH]c23)c([N+](=O)[O-])c1 please.
Output line: 88

Input line: Also, Clc1ccc(NCNC2Nc3ccccc3N2)cc1Cl please.
Output line: 91

// data source = PubChem BioAssay (NCI)
